# target or test system: human ACC2 (Homo sapiens)
# Construct: made in house; host or cells: insect cells (baculoviral expression system)
# measurement description: ACC2 assay, spectrophotometric 384 well assay (NADH-linked, coupled lactate dehydrogenase/pyruvate kinase)
# Type: biochemical
# condition label: ACC2 assay, hACC2 construct lacking 128 N-terminal amino acids, 25° C., 340 nm; read-out: IC50
pIC50: −log10 of the molar value.
Class criterion met: pIC50 at least 6. Class criterion not met: pIC50 below 6.

CC(=O)N[C@@H](C)c1ccc(C2CCN(c3cc(OCc4cccnc4)ncn3)CC2)cc1
criterion met
CC(=O)N[C@@H](C)c1ccc(C2CCN(c3ncc(C(F)(F)F)cc3Cl)CC2)cc1
criterion met
CC(=O)N[C@@H](C)c1ccc(C2CCN(c3ccnc(OCc4cccnc4)n3)CC2)cc1
criterion not met

Kindly review the next compound as well.
Data request: Is pIC50 at least 6? Consider `CCOc1ccc(N2CCC(c3ccc([C@H](C)NC(C)=O)cc3)CC2)c(C#N)c1`
Data returned: criterion met

====

# target or test system: human ACC2 (Homo sapiens, UniProt O00763)
# Construct: made in house; host or cells: insect cells (baculoviral expression system)
# Sequence (O00763 129-2458 limits assumed): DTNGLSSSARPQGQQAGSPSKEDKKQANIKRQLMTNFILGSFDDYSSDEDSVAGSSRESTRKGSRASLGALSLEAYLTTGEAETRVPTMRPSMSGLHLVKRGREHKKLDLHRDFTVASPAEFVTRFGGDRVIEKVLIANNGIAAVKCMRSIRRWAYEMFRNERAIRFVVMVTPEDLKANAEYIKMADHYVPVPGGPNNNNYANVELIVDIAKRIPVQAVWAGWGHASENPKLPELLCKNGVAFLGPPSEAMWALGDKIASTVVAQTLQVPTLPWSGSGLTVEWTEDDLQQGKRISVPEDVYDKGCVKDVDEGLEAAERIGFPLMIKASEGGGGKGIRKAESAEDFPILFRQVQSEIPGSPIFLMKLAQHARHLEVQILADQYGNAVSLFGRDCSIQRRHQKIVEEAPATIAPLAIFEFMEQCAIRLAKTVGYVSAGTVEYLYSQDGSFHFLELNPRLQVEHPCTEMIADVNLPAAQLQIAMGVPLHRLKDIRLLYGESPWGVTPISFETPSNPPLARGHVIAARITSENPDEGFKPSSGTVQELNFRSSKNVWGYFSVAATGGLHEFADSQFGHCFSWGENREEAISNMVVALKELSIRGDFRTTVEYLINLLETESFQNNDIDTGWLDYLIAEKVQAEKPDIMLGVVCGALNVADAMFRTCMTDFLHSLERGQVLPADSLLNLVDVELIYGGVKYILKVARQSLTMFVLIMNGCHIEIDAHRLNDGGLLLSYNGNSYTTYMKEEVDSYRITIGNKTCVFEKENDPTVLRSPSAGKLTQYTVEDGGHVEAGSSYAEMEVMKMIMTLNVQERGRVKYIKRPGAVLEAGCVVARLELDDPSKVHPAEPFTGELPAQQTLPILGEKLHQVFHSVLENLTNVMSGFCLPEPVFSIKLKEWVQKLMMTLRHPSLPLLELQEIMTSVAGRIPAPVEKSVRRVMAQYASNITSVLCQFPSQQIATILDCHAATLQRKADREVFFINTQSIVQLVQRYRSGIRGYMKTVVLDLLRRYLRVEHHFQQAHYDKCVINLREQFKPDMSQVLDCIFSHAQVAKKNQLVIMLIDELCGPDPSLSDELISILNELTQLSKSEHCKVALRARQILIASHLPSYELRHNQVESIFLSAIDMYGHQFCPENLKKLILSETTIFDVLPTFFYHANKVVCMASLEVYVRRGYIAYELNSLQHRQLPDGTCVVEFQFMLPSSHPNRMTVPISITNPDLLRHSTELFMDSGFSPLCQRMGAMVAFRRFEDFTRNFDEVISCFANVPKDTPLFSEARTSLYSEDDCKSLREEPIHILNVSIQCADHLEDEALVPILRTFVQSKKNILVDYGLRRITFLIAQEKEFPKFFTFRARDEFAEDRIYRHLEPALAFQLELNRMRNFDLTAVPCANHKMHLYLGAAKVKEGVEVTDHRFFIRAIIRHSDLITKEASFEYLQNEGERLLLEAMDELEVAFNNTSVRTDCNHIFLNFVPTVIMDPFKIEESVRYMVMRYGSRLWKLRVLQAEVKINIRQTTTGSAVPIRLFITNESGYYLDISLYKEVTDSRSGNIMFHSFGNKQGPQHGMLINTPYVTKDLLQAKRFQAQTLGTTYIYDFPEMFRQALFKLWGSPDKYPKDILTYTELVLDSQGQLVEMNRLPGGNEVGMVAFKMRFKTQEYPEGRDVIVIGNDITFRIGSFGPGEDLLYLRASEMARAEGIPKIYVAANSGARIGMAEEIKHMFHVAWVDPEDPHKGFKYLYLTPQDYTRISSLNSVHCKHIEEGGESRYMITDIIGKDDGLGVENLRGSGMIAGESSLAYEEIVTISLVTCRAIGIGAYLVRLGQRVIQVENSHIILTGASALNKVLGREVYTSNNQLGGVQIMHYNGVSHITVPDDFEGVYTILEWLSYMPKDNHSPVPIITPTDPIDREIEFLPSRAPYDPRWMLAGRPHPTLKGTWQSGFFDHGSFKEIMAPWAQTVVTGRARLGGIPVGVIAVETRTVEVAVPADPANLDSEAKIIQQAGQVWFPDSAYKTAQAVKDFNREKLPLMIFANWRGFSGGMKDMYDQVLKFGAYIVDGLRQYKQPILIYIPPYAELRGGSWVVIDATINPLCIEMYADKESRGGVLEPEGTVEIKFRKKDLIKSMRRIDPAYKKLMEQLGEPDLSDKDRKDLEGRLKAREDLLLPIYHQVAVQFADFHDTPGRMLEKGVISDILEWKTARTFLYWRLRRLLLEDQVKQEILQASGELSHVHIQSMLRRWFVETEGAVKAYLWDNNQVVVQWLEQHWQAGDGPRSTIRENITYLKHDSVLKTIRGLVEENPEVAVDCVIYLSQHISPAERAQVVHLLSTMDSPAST
# measurement description: ACC2 assay, spectrophotometric 384 well assay (NADH-linked, coupled lactate dehydrogenase/pyruvate kinase)
# Assay type: biochemical
# condition label: ACC2 assay, hACC2 construct lacking 128 N-terminal amino acids, 25° C., 340 nm; read-out: IC50
pIC50: −log10 of the molar value.
Class yes (1): pIC50 at least 6. Class no (0): pIC50 below 6.

Worked examples follow.
CC(=O)N[C@@H](C)c1ccc(C2CCN(c3cc(NCc4ccoc4)ncn3)CC2)cc1
no (0)
CCCOc1ccc(N2CCC(c3ccc(C(CC)NC(C)=O)cc3)CC2)cc1 (centres unmarked)
yes (1)
CC(=O)N[C@@H](C)c1ccc(C2CCN(c3ccc(OC4CCC4)cc3C#N)CC2)cc1
yes (1)
CC(=O)N[C@@H](C)c1ccc(C2CCN(c3ncc(C(=O)N(C)CC4(C)COC4)cn3)CC2)cc1
no (0)
CC(=O)N[C@@H](C)c1ccc(C2CCN(c3ccc(OC4CCC4)c(C)c3)CC2)cc1
no (0)

Kindly review the next molecule as well.
Data request: Is pIC50 at least 6? Consider `CCOc1ccc(N2CCC(c3ccc([C@H](C)NC(=O)c4cnon4)cc3)CC2)cc1`
Data returned: no (0)

====

# target or test system: human ACC2 (Homo sapiens, UniProt O00763)
# Construct: made in house; host or cells: insect cells (baculoviral expression system)
# measurement description: ACC2 assay, spectrophotometric 384 well assay (NADH-linked, coupled lactate dehydrogenase/pyruvate kinase)
# Assay type: biochemical
# condition label: ACC2 assay, hACC2 construct lacking 128 N-terminal amino acids, 25° C., 340 nm; read-out: IC50
# log10 IC50 annotations
In our notation, the value equals log10 of IC50 in nM.

CC(=O)N[C@@H](C)c1ccc(C2CCN(c3ncc(-c4cccnc4)cn3)CC2)cc1
2.56
COC1CN(c2cc(N3CCC(c4ccc([C@H](C)NC(C)=O)cc4)CC3)ncn2)C1
3.60
CC(=O)N[C@@H](C)c1ccc(C2CCN(c3ccc(F)c(C)c3)CC2)cc1
2.61

log10 IC50 in this record for `CC(=O)N[C@@H](C)c1ccc(C2CCN(c3ncc(-c4ccsc4)cn3)CC2)cc1` : 1.70

log10 IC50 in this record for `CC(=O)N[C@@H](C)c1ccc(C2CCN(c3ccc(-c4ccccc4)cn3)CC2)cc1` : 2.34

log10 IC50 in this record for `CC(=O)N[C@@H](C)c1ccc(C2CCN(c3cccc(OCCC(C)C)c3)CC2)cc1` : 2.57

log10 IC50 in this record for `CCCOc1ccc(N2CCC(c3ccc([C@H](C)NC(C)=O)cc3)CC2)nc1` : 2.11

log10 IC50 in this record for `CC(=O)N[C@@H](C)c1ccc(C2CCN(c3ccnc(OCC(C)C)n3)CC2)cc1` : 2.63

log10 IC50 in this record for `CC(=O)N[C@@H](C)c1ccc(C2CCN(c3cc(-c4ccc(C#N)s4)ncn3)CC2)cc1` : 3.46

log10 IC50 in this record for `CC(=O)N[C@@H](C)c1ccc(C2CCN(c3nc(-c4ccccc4)no3)CC2)cc1` : 2.98

Entry source: patent US9006450B2
